- Test Details: Selectivity index, ratio of CC50 for human MRC5 cells to IC50 for amastigote stage of Leishmania major (MHOM/IL/81/BNI) infected in BALB/c mouse peritoneal macrophages
- Assay type: toxicity
- Applied Conditions: read-out: Ratio CC50/IC50
Recorded Endpoint: selectivity ratio
Write the number on its own, no unit after it.

Inquiry: For the compound shown here, CCCCCCCCCCCCCCCCOP(=O)([O-])OCC[N+](C)(C)C , give the reported selectivity ratio.
Reply text: 25.5

---

- Test Details: Cytotoxicity against mouse RAW264.7 cells assessed as reduction in cell growth measured after 48 hrs by SYBR Green 1 dye based fluorescence assay
Recorded Endpoint: CC50 at 48 h
Put your answer as a value accompanied by its unit after it.

Inquiry: Suppose we examine the compound CCCCCCCCCCCCCCCCOP(=O)([O-])OCC[N+](C)(C)C ; what CC50 at 48 h value has been reported?
Reply text: 43 µM

---

- Tested Target: Aurora kinase B (Homo sapiens, UniProt Q96GD4)
- Sequence (Q96GD4 whole entry): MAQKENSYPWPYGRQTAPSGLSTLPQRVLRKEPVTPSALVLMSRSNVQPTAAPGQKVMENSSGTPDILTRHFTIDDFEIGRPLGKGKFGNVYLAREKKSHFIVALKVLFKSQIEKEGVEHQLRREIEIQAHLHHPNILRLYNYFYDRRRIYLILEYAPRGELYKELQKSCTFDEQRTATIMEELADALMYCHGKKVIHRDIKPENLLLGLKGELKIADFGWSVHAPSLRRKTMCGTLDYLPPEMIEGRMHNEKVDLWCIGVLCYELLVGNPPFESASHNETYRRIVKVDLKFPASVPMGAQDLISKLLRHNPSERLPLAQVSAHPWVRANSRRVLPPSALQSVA
- Test Details: Inhibition of recombinant human AURKB expressed in baculovirus infected Sf9 cells using MBP as substrate in presence of ATP measured after 30 mins by ADP-Glo assay
- Applied Conditions: sf9, 0.5 h
Recorded Endpoint: inhibition (INH)

In [3]: df
Out[3]:
                              smiles_record  measured_value
0  CN(C)c1nccn2c(-c3ccc4[nH]ncc4c3)c(-c3ccc(F)cc3)nc12      Not Active
1  CN(C)c1nccn2c(-c3ccncc3)c(-c3ccc(F)cc3)nc12      Not Active
2  CN(C)c1nccn2c(-c3cncnc3)c(-c3ccc(F)cc3)nc12      Not Active
3  CN(C)c1nccn2c(-c3cnn(C)c3)c(-c3ccc(F)cc3)nc12      Not Active

---

- Test Details: Selectivity index, ratio of CC50 for human MRC5 cells to IC50 for amastigote stage of Leishmania donovani (MHOM/ET/67/HU3) infected in mouse RAW264.7 cells
- Format: toxicity, cell-based
- Applied Conditions: read-out: Ratio CC50/IC50
Recorded Endpoint: selectivity ratio

>>> print(df.to_string())
                              smiles_record  recorded_endpoint  measured_value
0  CN(C)c1nccn2c(-c3ccncc3)c(-c3ccc(F)cc3)nc12  selectivity ratio            36.5
1  CSc1nccc(-c2c(-c3ccc(F)cc3)nc3c(N)nccn23)n1  selectivity ratio             1.5
2  CSc1nccc(-c2c(-c3ccc(F)cc3)nc3c(N(C)C)nccn23)n1  selectivity ratio             6.4
3  CN(C)c1nccn2c(-c3ccnc(N)n3)c(-c3ccc(F)cc3)nc12  selectivity ratio              10
4  CN(C)c1nccn2c(-c3cnn(C)c3)c(-c3ccc(F)cc3)nc12  selectivity ratio            78.7
5  CSc1nccc(-c2c(-c3ccccc3)nc3c(N(C)C)nccn23)n1  selectivity ratio             4.6

Inquiry: Could you tell me which selectivity ratio is on file for CCCCCCCCCCCCCCCCOP(=O)([O-])OCC[N+](C)(C)C ?
Reply text: 20.1

Inquiry: Need selectivity ratio, item CSc1nccc(-c2c(-c3ccccc3)nc3c(Cl)nccn23)n1
Reply text: 3.4

Inquiry: Entry CN(C)c1nccn2c(-c3ccc4[nH]ncc4c3)c(-c3ccc(F)cc3)nc12 : reported selectivity ratio = ?
Reply text: 2

---

- Test Details: Selectivity index, ratio of CC50 for mouse RAW264.7 cells to IC50 for amastigote stage of Leishmania infantum (MHOM/FR/2008/LEM5700) infected in mouse RAW264.7 cells
- Assay type: toxicity, cell-based
- Applied Conditions: read-out: Ratio CC50/IC50
Recorded Endpoint: selectivity ratio
Field format: numeric only.

Inquiry: Data request, read-out selectivity ratio, for CCCCCCCCCCCCCCCCOP(=O)([O-])OCC[N+](C)(C)C
Reply text: 14.5

---

- Test Details: Selectivity index, ratio of CC50 for mouse RAW264.7 cells to IC50 for amastigote stage of Leishmania donovani (MHOM/ET/67/HU3) infected in mouse RAW264.7 cells
- Assay type: toxicity, cell-based
- Applied Conditions: read-out: Ratio CC50/IC50
Recorded Endpoint: selectivity ratio
Could you keep your reply to the number by itself?

Inquiry: Report selectivity ratio for CCCCCCCCCCCCCCCCOP(=O)([O-])OCC[N+](C)(C)C please.
Reply text: 23.5

---

Listed below: selectivity ratio values for each entry.
- Test Details: Selectivity index, ratio of CC50 for human MRC5 cells to IC50 for amastigote stage of Leishmania infantum (MHOM/FR/2008/LEM5700) infected in mouse RAW264.7 cells
- Format: toxicity, cell-based
- Applied Conditions: read-out: Ratio CC50/IC50
Simply state the number, no unit and no words.

Inquiry: selectivity ratio for CSc1nccc(-c2c(-c3ccccc3)nc3c(N(C)C)nccn23)n1 ?
Reply text: 6.5

---

- Test Details: Selectivity index, ratio of CC50 for mouse RAW264.7 cells to IC50 for amastigote stage of Leishmania braziliensis (MHOM/BR/75/M2903b) infected in mouse RAW264.7 cells
- Type: toxicity, cell-based
- Applied Conditions: read-out: Ratio CC50/IC50
Recorded Endpoint: selectivity ratio
Enter a number only.

Inquiry: Return reported selectivity ratio; argument: CCCCCCCCCCCCCCCCOP(=O)([O-])OCC[N+](C)(C)C [MILTEFOSINE]
Reply text: 5.2

---

- Tested Target: Dual specificity tyrosine-phosphorylation-regulated kinase 1A (Rattus norvegicus)
- Test Details: Inhibition of recombinant rat DYRK1A (1 to 499 ) expressed in bacterial expression system using KKISGRLSPIMTEQ as substrate in presence of [gamma-33P]ATP measured by radiometric assay
Recorded Endpoint: IC50
# number then unit; no other words

Inquiry: // returns reported IC50 for input CSc1nccc(-c2c(-c3ccc(F)cc3)nc3c(N)nccn23)n1
Reply text: 2000 nM

---

- Test Details: Selectivity index, ratio of CC50 for human MRC5 cells to IC50 for amastigote stage of Leishmania braziliensis (MHOM/BR/75/M2903b) infected in mouse RAW264.7 cells
- Format: toxicity, cell-based
- Applied Conditions: read-out: Ratio CC50/IC50
selectivity ratio for assorted compounds
Output spec: single numeric token, no unit.

>>> print(df.to_string())
                              smiles_record  measured_value
0  CSc1nccc(-c2c(-c3ccc(F)cc3)nc3c(N)nccn23)n1             1.5
1  CSc1nccc(-c2c(-c3ccccc3)nc3c(N(C)C)nccn23)n1             1.8
2  CSc1nccc(-c2c(-c3ccc(F)cc3)nc3c(N(C)C)nccn23)n1             1.1
3  CN(C)c1nccn2c(-c3ccncc3)c(-c3ccc(F)cc3)nc12             1.7
4  CCCCCCCCCCCCCCCCOP(=O)([O-])OCC[N+](C)(C)C             4.4

Inquiry: I have this compound here, CN(C)c1nccn2c(-c3ccnc(N)n3)c(-c3ccccc3)nc12 , and I need its recorded selectivity ratio.
Reply text: 1

Inquiry: # get_value(readout='selectivity ratio', item= CN(C)c1nccn2c(-c3cncnc3)c(-c3ccc(F)cc3)nc12 )
Reply text: 4.4

Inquiry: I am curious: what selectivity ratio value has been reported for CSc1nccc(-c2c(-c3ccc(F)cc3)nc3c(Cl)nccn23)n1 ?
Reply text: 1.1

Inquiry: Suppose we examine the compound CN(C)c1nccn2c(-c3cnn(C)c3)c(-c3ccc(F)cc3)nc12 ; what selectivity ratio value has been reported?
Reply text: 4

Inquiry: Fill blank: measured selectivity ratio of the compound CN(C)c1nccn2c(-c3ccc4[nH]ncc4c3)c(-c3ccc(F)cc3)nc12 is ____.
Reply text: 2

Inquiry: Bench note: what selectivity ratio did CN(C)c1nccn2c(-c3ccnc(N)n3)c(-c3ccc(F)cc3)nc12 show?
Reply text: 4.1

Inquiry: Which value of selectivity ratio has been reported for CSc1nccc(-c2c(-c3ccccc3)nc3c(Cl)nccn23)n1 in the records?
Reply text: 1.9

---

# IC50 listing for each entry below
- Test system: Leishmania infantum
- Test Details: Antileishmanial activity against amastigote stage of Leishmania infantum (MHOM/FR/2008/LEM5700) infected in mouse RAW264.7 cells assessed as reduction in parasitic proliferation measured by SYBR Green 1 dye based fluorescence assay
- Format: functional, organism-based
- Applied Conditions: MHOM/FR/2008/LEM5700, RAW264.7
Give a bare numeral; the unit µM is implied.

As a guide, the following entries are already answered.
>>> print(df.to_string())
                                   compound        tested_target  unit_abbreviation  measured_value
0  CSc1nccc(-c2c(-c3ccccc3)nc3c(Cl)nccn23)n1  Leishmania infantum                 µM            1.93
1  CSc1nccc(-c2c(-c3ccc(F)cc3)nc3c(N(C)C)nccn23)n1  Leishmania infantum                 µM             6.2
2  CN(C)c1nccn2c(-c3ccncc3)c(-c3ccc(F)cc3)nc12  Leishmania infantum                 µM            12.8
3  CCCCCCCCCCCCCCCCOP(=O)([O-])OCC[N+](C)(C)C [MILTEFOSINE]  Leishmania infantum                 µM            2.96
4  CN(C)c1nccn2c(-c3ccc4[nH]ncc4c3)c(-c3ccc(F)cc3)nc12  Leishmania infantum                 µM            12.9

Inquiry: Entry CSc1nccc(-c2c(-c3ccccc3)nc3c(N(C)C)nccn23)n1 : reported IC50 = ?
Reply text: 12.5

Inquiry: Entry CN(C)c1nccn2c(-c3ccnc(N)n3)c(-c3ccc(F)cc3)nc12 has what IC50?
Reply text: 6.55

Inquiry: If you can, please state the reported IC50 value of CN(C)c1nccn2c(-c3cnn(C)c3)c(-c3ccc(F)cc3)nc12 .
Reply text: 2.6
